biological target: human TLR7 (Homo sapiens (Human), UniProt Q9NYK1); assay: TLR7 inhibition reporter assay (HEK-Blue SEAP); assay type: cell-based; conditions: HEK-Blue cells overexpressing human TLR7, gardiquimod 7.5 μM stimulation, SEAP reporter
Sequence (Q9NYK1 27-1049): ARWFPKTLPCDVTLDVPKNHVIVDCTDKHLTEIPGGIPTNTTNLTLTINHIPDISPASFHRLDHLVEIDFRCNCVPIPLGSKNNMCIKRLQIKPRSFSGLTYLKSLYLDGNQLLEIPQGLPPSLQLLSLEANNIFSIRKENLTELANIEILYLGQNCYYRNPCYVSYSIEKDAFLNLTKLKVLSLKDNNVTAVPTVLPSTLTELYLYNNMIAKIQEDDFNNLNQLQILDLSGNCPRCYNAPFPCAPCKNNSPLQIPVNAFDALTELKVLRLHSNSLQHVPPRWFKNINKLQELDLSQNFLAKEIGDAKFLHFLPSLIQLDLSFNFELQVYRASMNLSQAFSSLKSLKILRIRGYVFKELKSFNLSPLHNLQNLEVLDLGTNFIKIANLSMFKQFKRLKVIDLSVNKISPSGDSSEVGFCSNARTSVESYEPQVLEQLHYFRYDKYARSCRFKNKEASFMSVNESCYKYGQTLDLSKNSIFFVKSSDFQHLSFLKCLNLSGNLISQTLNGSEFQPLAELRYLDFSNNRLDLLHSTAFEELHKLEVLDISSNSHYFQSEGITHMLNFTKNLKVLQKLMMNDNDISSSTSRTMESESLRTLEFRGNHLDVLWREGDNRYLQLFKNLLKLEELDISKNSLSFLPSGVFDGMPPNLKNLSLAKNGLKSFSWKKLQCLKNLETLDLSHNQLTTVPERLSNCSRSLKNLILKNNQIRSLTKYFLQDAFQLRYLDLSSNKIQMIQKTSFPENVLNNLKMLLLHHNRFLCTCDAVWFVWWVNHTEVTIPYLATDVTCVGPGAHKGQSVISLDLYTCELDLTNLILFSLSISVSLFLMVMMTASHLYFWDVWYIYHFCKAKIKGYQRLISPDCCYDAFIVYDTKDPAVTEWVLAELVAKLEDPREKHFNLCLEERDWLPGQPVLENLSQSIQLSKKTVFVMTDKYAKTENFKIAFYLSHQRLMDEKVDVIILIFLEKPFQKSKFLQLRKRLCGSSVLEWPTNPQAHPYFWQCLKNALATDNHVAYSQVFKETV
value-type: IC50 (nM)

Consider the molecule COCCN(C)C1CCC(c2ccc3[nH]c(-c4cn5ncnc5c(C)c4C)c(C(C)C)c3n2)CC1 (stereo not shown) [Example 391] and give its measured IC50. 2.6

[a] COc1cc(-c2[nH]c3ccc(C4CCC(N)C4)nc3c2C(C)C)cn2ncnc12 (racemic) [Example 9]
[b] Cc1c(-c2[nH]c3ccc(N4CCN(CCC(N)=O)CC4)nc3c2C(C)C)cn2ncnc2c1C [Example 149]
[c] CNC(=O)CN(C)C1CCC(c2ccc3[nH]c(-c4cc(OC)c5ncnn5c4)c(C(C)C)c3n2)CC1 (stereo not shown) [Example 228]
Sort by IC50, descending. Use the labels to give the ranking in the order requested. b, c, a
(b: 9.3 nM, c: 3.3 nM, a: 1.7 nM)

====

biological target: human TLR9 (Homo sapiens (Human), UniProt Q9NR96); test: TLR9 inhibition reporter assay (HEK-Blue SEAP); details: read-out: TLR9 IC50; HEK-Blue cells overexpressing human TLR9, SEAP reporter, ODN2006 5 nM
Sequence (Q9NR96 26-1032): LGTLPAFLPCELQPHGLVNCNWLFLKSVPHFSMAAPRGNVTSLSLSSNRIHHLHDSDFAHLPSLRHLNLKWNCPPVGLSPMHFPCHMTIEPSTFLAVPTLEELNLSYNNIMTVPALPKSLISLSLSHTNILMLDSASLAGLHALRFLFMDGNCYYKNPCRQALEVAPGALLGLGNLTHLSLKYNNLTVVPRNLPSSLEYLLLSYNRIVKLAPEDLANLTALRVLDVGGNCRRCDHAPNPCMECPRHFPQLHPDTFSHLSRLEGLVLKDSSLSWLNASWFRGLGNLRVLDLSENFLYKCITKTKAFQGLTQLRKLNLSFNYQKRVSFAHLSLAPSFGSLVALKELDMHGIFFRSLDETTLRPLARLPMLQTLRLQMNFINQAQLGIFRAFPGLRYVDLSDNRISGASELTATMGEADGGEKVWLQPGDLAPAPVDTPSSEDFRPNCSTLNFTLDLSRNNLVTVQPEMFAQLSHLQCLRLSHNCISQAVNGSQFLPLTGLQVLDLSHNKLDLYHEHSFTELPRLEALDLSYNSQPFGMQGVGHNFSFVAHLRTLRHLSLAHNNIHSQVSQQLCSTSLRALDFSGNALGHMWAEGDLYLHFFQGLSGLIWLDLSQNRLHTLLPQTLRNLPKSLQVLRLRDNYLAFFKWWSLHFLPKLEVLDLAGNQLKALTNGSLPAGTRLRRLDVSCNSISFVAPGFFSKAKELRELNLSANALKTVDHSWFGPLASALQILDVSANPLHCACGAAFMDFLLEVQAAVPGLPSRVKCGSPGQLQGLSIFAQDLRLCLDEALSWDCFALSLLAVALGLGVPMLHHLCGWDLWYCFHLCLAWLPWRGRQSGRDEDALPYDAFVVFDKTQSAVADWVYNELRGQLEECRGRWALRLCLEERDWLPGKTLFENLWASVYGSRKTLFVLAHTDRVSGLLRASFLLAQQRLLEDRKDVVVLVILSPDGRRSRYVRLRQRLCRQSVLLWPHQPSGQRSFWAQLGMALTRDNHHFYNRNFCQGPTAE
value-type: IC50 (µM)

Use these answered entries as a reference point.
What does the record list as IC50 for Cc1c(-c2[nH]c3ccc(N4CC5(CNC5)C4)nc3c2C(C)C)cn2ncnc2c1C [Example 740] ? 0.623

Lookup Cc1c(-c2[nH]c3ccc(C4CN(C5CCOCC5)CCO4)nc3c2C(C)C)cn2ncnc2c1C (stereo not drawn) [Example 664] 38.5

Could you do the same for CNC(=O)CN1CCC(c2ccc3[nH]c(-c4cn5ncnc5c(C)c4C)c(C(C)C)c3n2)CC1 [Example 539] , please? 3.32

[1] COc1cc(-c2[nH]c3ccc(C4CN(CC(C)(C)O)C4)nc3c2C(C)C)cn2ncnc12 [Example 657]
[2] CNC(=O)CNC1CC(c2ccc3[nH]c(-c4cc(OC)c5ncnn5c4)c(C(C)C)c3n2)C1 (stereo not drawn) [Example 628]
Problem: Given the entries 1 and 2 , determine which has the lower reported IC50. Please identify the chosen entry by its label. 2

====

molecular target: human TLR9 (Homo sapiens (Human), UniProt Q9NR96); assay: TLR9 inhibition reporter assay (HEK-Blue SEAP); conditions: read-out: TLR9 IC50; HEK-Blue human TLR9 cells, ODN2006 5 nM;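 further: SEAP driven by an IFN-β minimal promoter with NF-κB and AP-1 sites, read after 22 h, compounds dosed 0.05 nM–50 µM, inhibition scaled between agonist plus DMSO and reference-inhibitor wells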
pIC50: −log10 of the molar value.
value-type: pIC50

What value of pIC50 has been recorded for this entry: Cc1c(-c2[nH]c3ccc(N4CCN(CCN(C)C)C(=O)C4)nc3c2C(C)C)cn2ncnc2c1C [Example 1032] 4.60

Thanks! And Cc1c(-c2[nH]c3ccc(C4CC5(C4)CN(CCS(C)(=O)=O)C5)nc3c2C(C)C)cn2ncnc2c1C [Example 1026] ? 4.84

Likewise for Cc1c(-c2[nH]c3ccc(N4CCN(C(=O)CN(CC(C)C)CC(C)C)CC4)nc3c2C(C)C)cn2ncnc2c1C [Example 881] ? 4.36

Also, Cc1c(-c2[nH]c3ccc(N4[C@H](C)CN(CCCS(C)(=O)=O)C[C@H]4C)nc3c2C(C)C)cn2ncnc2c1C [Example 869] please. 4.39

Next up: Cc1c(-c2[nH]c3ccc(N4CCN(C(=O)CN(C)C)C[C@H]4C)nc3c2C(C)C)cn2ncnc2c1C [Example 808] 5.05

[a] COCCNC1CN(c2ccc3[nH]c(-c4cn5ncnc5c(C)c4C)c(C(C)C)c3n2)C1 [Example 1000]
[b] Cc1c(-c2[nH]c3ccc(C4CCC(NC5CCS(=O)(=O)CC5)CC4)nc3c2C(C)C)cn2ncnc2c1C (centres unmarked) [Example 1043]
Decide: a or b , by lowest recorded pIC50. Field: selected label. Fill in the label of the entry you choose. a
(a: 5.19, b: 5.76)

[A] Cc1c(-c2[nH]c3ccc(N4CCN(C(=O)CN5CC(C)(O)C5)CC4)nc3c2C(C)C)cn2ncnc2c1C [Example 946]
[B] Cc1c(-c2[nH]c3ccc([C@H]4CC[C@@H](N5CC6(C5)CS(=O)(=O)C6)CC4)nc3c2C(C)C)cn2ncnc2c1C [Example 1053]
Hey, which is lower on measured pIC50, A or B ? Indicate your choice by writing its label. A

[a] Cc1c(-c2[nH]c3ccc(N4CCN[C@@H](C)C4)nc3c2C(C)C)cn2ncnc2c1C [Example 989]
[b] Cc1c(-c2[nH]c3ccc(N4CCN(C(=O)CN5CCC(C)(O)C5)CC4)nc3c2C(C)C)cn2ncnc2c1C (centres unmarked) [Example 948]
For the pair a and b , which entry has the numerically smaller recorded pIC50? Answer with the label corresponding to your selection. b
(b: 4.89, a: 5.15)
